tested on: KPN 6299; assay: MIC, broth microdilution (CLSI), substance alone or ATB combined with compound at 4 or 8 μg/mL; format: cell-based, K. pneumoniae; details: ATB ATM, Example @8 μg/ml
VALUE_KIND: MIC ATB combined with Example

COMPOUND | RESULT
NCCCn1c2c(sc1=O)C1CN(C2)C(=O)N1OS(=O)(=O)O (centres unmarked) | <=0.031 μg/mL
O=C1N2CC(n3cccn3)=CC(C2)N1OS(=O)(=O)[O-].[Na+] (centres unmarked) | <0.031 mg/L
O=C1N2CC(n3cncn3)=CC(C2)N1OS(=O)(=O)[O-].[Na+] (centres unmarked) | <0.031 mg/L
O=C1N2CC(n3cccn3)=CC(C2)N1OC(F)(F)C(=O)[O-].[Li+] (centres unmarked) | <=0.031 μg/mL

Continue with the compound presented below.
Lookup: For the compound O=C1N2CC(n3ccnn3)=CC(C2)N1OS(=O)(=O)[O-].[Na+] (centres unmarked) , what MIC ATB combined with Example is on record?
Found: <0.031 mg/L
